Values were extracted from patent US20180099931A1.

target: F508delCFTR (Homo sapiens, UniProt P13569, DEL508-508)
Construct: expressed in transfected cells; host or cells: CFBE41o- human lung-derived epithelial cells (CFBE4lo-F508delCFTR-HRP), doxycycline-inducible
Sequence (P13569 with tags, fused parts or gaps DEL508-508): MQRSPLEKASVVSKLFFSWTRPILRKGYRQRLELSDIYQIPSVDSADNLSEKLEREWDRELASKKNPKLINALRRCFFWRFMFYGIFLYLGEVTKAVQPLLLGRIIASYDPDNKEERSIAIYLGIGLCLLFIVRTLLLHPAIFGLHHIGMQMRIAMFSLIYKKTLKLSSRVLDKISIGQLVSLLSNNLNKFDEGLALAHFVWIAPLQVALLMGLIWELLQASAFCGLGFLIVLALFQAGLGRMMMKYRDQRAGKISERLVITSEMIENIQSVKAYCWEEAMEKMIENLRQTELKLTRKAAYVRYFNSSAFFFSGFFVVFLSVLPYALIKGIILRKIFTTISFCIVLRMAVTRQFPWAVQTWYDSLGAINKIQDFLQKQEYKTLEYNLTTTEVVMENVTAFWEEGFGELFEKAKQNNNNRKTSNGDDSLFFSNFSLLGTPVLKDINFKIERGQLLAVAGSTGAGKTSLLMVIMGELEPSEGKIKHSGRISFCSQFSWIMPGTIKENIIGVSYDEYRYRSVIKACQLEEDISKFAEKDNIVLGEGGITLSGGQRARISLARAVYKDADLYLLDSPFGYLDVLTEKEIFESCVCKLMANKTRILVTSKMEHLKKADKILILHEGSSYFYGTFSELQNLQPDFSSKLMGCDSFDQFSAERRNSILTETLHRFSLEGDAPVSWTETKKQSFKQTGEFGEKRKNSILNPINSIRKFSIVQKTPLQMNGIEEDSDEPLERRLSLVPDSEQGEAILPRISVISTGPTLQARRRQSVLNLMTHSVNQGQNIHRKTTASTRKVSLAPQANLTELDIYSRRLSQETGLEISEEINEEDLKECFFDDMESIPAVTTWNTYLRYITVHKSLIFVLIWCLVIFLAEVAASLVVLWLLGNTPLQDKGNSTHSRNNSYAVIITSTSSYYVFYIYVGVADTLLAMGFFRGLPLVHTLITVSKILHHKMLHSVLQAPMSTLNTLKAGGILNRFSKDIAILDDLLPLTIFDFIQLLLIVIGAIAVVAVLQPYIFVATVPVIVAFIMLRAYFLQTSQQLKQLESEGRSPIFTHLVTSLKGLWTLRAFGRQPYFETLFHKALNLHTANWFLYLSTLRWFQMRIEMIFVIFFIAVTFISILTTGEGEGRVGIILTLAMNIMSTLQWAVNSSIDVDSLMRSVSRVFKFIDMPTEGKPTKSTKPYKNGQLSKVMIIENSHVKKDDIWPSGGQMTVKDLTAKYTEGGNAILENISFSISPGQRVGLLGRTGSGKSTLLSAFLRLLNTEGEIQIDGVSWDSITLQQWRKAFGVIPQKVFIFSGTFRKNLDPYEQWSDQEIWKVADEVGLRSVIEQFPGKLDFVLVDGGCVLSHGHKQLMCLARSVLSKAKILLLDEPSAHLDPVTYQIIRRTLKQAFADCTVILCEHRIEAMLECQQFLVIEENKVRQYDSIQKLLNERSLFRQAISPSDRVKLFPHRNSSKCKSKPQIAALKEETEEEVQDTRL
experiment.notes: Cell Surface Expression-Horse Radish Peroxidase (CSE-HRP) Assay;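 note: percent of the 2 µM on-plate positive control corrector response above DMSO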
Assay type: cell-based
measurement.setup: without co-corrector; maximum at any tested concentration, normalized to on-plate positive control; read-out: Maximum % activity (without co-corrector)
Description: Cell Surface Expression-Horse Radish Peroxidase (CSE-HRP) Assay The development was achieved by expressing the F508delCFTR mutation along with a horseradish peroxidase (HRP) in the fourth exofacial loop, and then measuring the HRP activity using luminescence readout from these cells, CFBE4lo-F508delCFTR-HRP, that were incubated overnight with the test corrector compounds, either without or with the co-corrector. […] The raw counts from the experiment were analyzed using Accelrys® Assay Explorer v3.3. […]
endpoint.name: Emax

These recorded examples may help you get a feel for the data.
| compound | Emax |
| --- | --- |
| COc1ccc(C(C)(C)C)cc1CN[C@@H]1[C@@H](C(C)(C)C)[C@H](C(=O)O)N(C(=O)C2CCCCC2)[C@H]1c1ccccc1 | < 100% |
| COc1ccc(C(C)(C)C)cc1CN[C@H]1[C@H](C(C)(C)C)[C@@H](C(=O)O)N(C(=O)C2CCCCC2C(=O)N2CCC2)[C@H]1c1ccccc1 (some centres unmarked) | > 200% |
| COc1ncc(C2CCC2)cc1CN[C@H]1[C@H](C(C)(C)C)[C@@H](C(=O)O)N(C(=O)C2Cc3ccccc3CO2)[C@H]1c1ccccc1 (some centres unmarked) | 100 to 200% |
| COc1ccc(C(C)(C)C)cc1CN[C@H]1[C@H](C(C)(C)C)[C@@H](C(=O)O)N(C(=O)c2ccc(OC3CCCCC3)cc2)[C@H]1c1cccnc1N(C)C | 100 to 200% |

Here is another compound to look at.
Enquiry: Query (compound): COc1ncc(C(F)(F)F)cc1CN[C@H]1[C@H](C(C)(C)C)[C@@H](C(=O)O)N(C(=O)[C@@H]2CCCC(F)(F)C2)[C@H]1c1ccccc1 ; field requested: Emax
Return: > 200%

====

Could you please report measured Emax for the items listed next?
target: F508delCFTR (Homo sapiens, UniProt P13569, DEL508-508)
Construct: expressed in transfected cells; host or cells: CFBE41o- human lung-derived epithelial cells (CFBE4lo-F508delCFTR-HRP), doxycycline-inducible
experiment.notes: Cell Surface Expression-Horse Radish Peroxidase (CSE-HRP) Assay;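 note: percent of the 2 µM on-plate positive control corrector response above DMSO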
Type: cell-based
measurement.setup: CSE-HRP; without co-corrector; maximum at any tested concentration, normalized to on-plate positive control; read-out: Maximum % activity (without co-corrector)

| molecule | recorded.result |
| --- | --- |
| COc1cc(C(F)(F)F)ccc1CN[C@H]1[C@H](C(C)(C)C)[C@@H](C(=O)O)N(C(=O)[C@@H]2CCCCO2)[C@H]1c1cccc2c1OCC2 | > 200% |
| COc1ncc(C(F)(F)F)cc1CN[C@H]1[C@H](C(C)(C)C)[C@@H](C(=O)O)N(C(=O)[C@@H]2CCCO2)[C@H]1c1ccccc1C | > 200% |

Consider the following items and state reported Emax for each.
1. COc1ccc(C(F)(F)F)cc1CN[C@@H]1[C@@H](C(C)(C)C)[C@H](C(=O)O)N(C(=O)C2CCCCO2)[C@@H]1c1ccccc1N(C)C (mixture of isomers)
2. COc1ccc(C(C)(C)C)cc1CN[C@H]1[C@H](C(C)(C)C)[C@@H](C(=O)O)N(C(=O)c2cc(-c3ccccc3)nn2C)[C@H]1c1ccccc1
3. COc1ccc(-c2ccoc2)cc1CN[C@H]1[C@H](C(C)(C)C)[C@@H](C(=O)O)N(C(=O)C2CCCCC2)[C@H]1c1ccccc1
4. COCc1cc(C)nc(N[C@H]2[C@H](C(C)(C)C)[C@@H](C(=O)O)N(C(=O)C3CCCCC3)[C@H]2c2ccccc2)c1C#N
5. COc1cccc(-c2ccc(OC)c(CN[C@H]3[C@H](C(C)(C)C)[C@@H](C(=O)O)N(C(=O)C4CCCCC4)[C@H]3c3ccccc3)c2)c1

Return:
1: > 200%; 2: 100 to 200%; 3: > 200%; 4: < 100%; 5: > 200%

====

target: F508delCFTR (Homo sapiens, UniProt P13569, DEL508-508)
Construct: expressed in transfected cells; host or cells: CFBE41o- human lung-derived epithelial cells (CFBE4lo-F508delCFTR-HRP), doxycycline-inducible
experiment.notes: Cell Surface Expression-Horse Radish Peroxidase (CSE-HRP) Assay;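 note: percent of the 2 µM on-plate positive control corrector response above DMSO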
Format: cell-based
measurement.setup: without co-corrector; maximum at any tested concentration, normalized to on-plate positive control; read-out: Maximum % activity (without co-corrector)
endpoint.name: Emax

Consider the following items and state reported Emax for each.
1. COc1ccc(SC(F)(F)F)cc1CN[C@H]1[C@H](C(C)(C)C)[C@@H](C(=O)O)N(C(=O)C2CCCCC2)[C@H]1c1ccccc1
2. COc1ccc(C2CCC2)cc1CN[C@H]1[C@H](C(C)(C)C)[C@@H](C(=O)O)N(C(=O)C2CCCCC2)[C@H]1c1ccccc1
3. COc1ccc(C(C)(C)C)cc1CN[C@H]1[C@H](C(C)(C)C)[C@@H](C(=O)O)N(C(=O)C2CCCCC2)[C@H]1c1ccccc1OC(F)F

Return:
1. 100 to 200%
2. > 200%
3. 100 to 200%

====

Could you please report measured Emax for the items listed next?
target: F508delCFTR (Homo sapiens, UniProt P13569, DEL508-508)
Construct: expressed in transfected cells; host or cells: CFBE41o- human lung-derived epithelial cells (CFBE4lo-F508delCFTR-HRP), doxycycline-inducible
experiment.notes: Cell Surface Expression-Horse Radish Peroxidase (CSE-HRP) Assay;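 note: percent of the 2 µM on-plate positive control corrector response above DMSO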
Type: cell-based
measurement.setup: test compound without co-corrector; maximum at any tested concentration, normalized to on-plate positive control; read-out: Maximum % activity (without co-corrector)

These recorded examples may help you get a feel for the data.
| compound | Emax |
| --- | --- |
| COc1cccc(CN[C@@H]2[C@@H](C(C)(C)C)[C@H](C(=O)O)N(C(=O)C3CCCCC3)[C@@H]2c2ccccc2)n1 (racemic) [III-19] | < 100% |
| COc1ccc(C(C)(C)C)cc1CN[C@H]1[C@H](C(C)(C)C)[C@@H](C(=O)O)N(C(=O)C2CC2(F)F)[C@H]1c1ccccc1 (stereo partly shown) [II-327] | 100 to 200% |
| COc1cc(C(F)(F)F)ccc1CN[C@@H]1[C@@H](C(C)(C)C)[C@H](C(=O)O)N(C(=O)OC2CCC2)[C@@H]1c1ccccc1 (racemic) [III-114] | 100 to 200% |

Consider the following items and state reported Emax for each.
1. COc1ccc(C(C)(C)C)cc1CN[C@H]1[C@H](C(C)(C)C)[C@@H](C(=O)O)N(C(=O)C2CCc3cccc(OC)c3C2)[C@H]1c1ccccc1 (stereo partly shown) [II-317]
2. CC(C)(C)[C@H]1[C@H](NCc2ccc3c(c2)OCCCO3)[C@H](c2ccccc2)N(C(=O)C2CCCCC2)[C@@H]1C(=O)O [III-129]
3. COc1ccc(C(C)(C)C)cc1CN[C@H]1[C@H](C(C)(C)C)[C@@H](C(=O)O)N(C(=O)c2cc(C)n(C)n2)[C@H]1c1ccccc1 [II-445]

Return:
> 200%
< 100%
100 to 200%

Consider the following items and state reported Emax for each.
1. COc1ccc(C(C)(C)C)cc1CN[C@H]1[C@H](C(C)(C)C)[C@@H](C(=O)O)N(C(=O)C2CC(C)(C)C2)[C@H]1c1ccccc1 [II-328]
2. COc1nc(C(C)(C)C)ccc1CN[C@H]1[C@H](C(C)(C)C)[C@@H](C(=O)O)N(C(=O)[C@H]2CCC[C@@H](OC)C2)[C@H]1c1ccccc1 (relative stereo) [II-456]
3. COc1ncc(C(F)(F)F)cc1CN[C@H]1[C@H](C(C)(C)C)[C@@H](C(=O)O)N(C(=O)[C@H]2CC[C@@H](c3ccccc3)O2)[C@H]1c1ccccc1 (relative stereo) [II-426]
4. COc1ccc(C(C)(C)C)cc1CN[C@H]1[C@H](C(C)(C)C)[C@@H](C(=O)O)N(C(=O)C23CC(F)(C2)C3)[C@H]1c1ccccc1 [II-498]
5. CC(C)(C)[C@H]1[C@H](NCc2ccc(Cl)c(Cl)c2)[C@H](c2ccccc2)N(C(=O)C2CCCCC2)[C@@H]1C(=O)O [III-130]
6. CC(C)(C)[C@H]1[C@H](Nc2nc(Cl)c(F)cc2C#N)[C@H](c2ccccc2)N(C(=O)C2CCCCC2)[C@@H]1C(=O)O [III-145]
7. COc1ccc(C(C)(C)C)cc1CN[C@H]1[C@H](C(C)(C)C)[C@@H](C(=O)O)N(C(=O)C2CCCC2(C)C)[C@H]1c1ccccc1 (stereo partly shown) [III-204]

Return:
> 200%
> 200%
< 100%
100 to 200%
< 100%
< 100%
> 200%
